target: Candida boidinii FDH (Candida boidinii, UniProt O13437); assay: biochemical; settings: […]; haloketone 20 mM added 1:1; 30° C., 5 hours; […]; read-out: Residual FDH activity (%)
Sequence (O13437 whole entry): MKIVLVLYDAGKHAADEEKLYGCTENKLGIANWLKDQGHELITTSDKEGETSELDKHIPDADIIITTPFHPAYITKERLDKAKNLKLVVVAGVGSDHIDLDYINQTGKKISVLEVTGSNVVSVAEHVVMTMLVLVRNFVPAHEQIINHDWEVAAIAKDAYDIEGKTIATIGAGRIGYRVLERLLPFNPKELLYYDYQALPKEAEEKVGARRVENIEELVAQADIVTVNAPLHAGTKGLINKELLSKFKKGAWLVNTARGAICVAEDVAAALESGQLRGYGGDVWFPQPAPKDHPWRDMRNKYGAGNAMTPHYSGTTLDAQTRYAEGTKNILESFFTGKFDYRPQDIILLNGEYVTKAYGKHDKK
PARAMETER MEASURED: remaining activity at 20000 µM (%)
Kindly provide the numeric value in % only, without the unit symbol.

> print(dat)
                                   compound              parameter.measured  measured.result
1  COC(=O)CC(=O)CCl [Methyl4-chloroacetoacetate, methyl 4-chloroacetoacetate]  remaining activity at 20000 µM             14.9
2  CCOC(=O)C(Cl)C(C)=O (centres unmarked) [Ethyl2-chloroacetoacetate, ethyl 2-chloroacetoacetate]  remaining activity at 20000 µM              5.4
3  CCOC(=O)CC(=O)CCl [Ethyl4-chloroacetoacetate, ethyl 4-chloroacetoacetate]  remaining activity at 20000 µM             14.3
4                          O=C(CCl)c1cccnc1  remaining activity at 20000 µM              1.5

Next compound, please.
Query: Return reported remaining activity at 20000 µM. Input compound: O=C(CCl)c1cccc(Cl)c1
Response: 7.4

The measurements presented in this section are drawn from patent US7432095B2.
